Data provenance: PubChem BioAssay (NCI)

Listing: growth of selected compounds
- System: NCI-H23 lung
- METHOD_NOTES: NCI-60 one-dose screen, 48 h (100 = growth as untreated, 0 = no growth, -100 = all killed)
- RUN_PARAMETERS: 10 µM unless noted
The panel holds about 83,000 compounds, 20% with a hit somewhere; the sample as a whole holds those more often.
Give the number; % is assumed, so skip it.

Briefly, growth measured for CC1SC(c2ccc(Cl)cc2)N(CCc2cccs2)C1=O (configuration not stated) : -0.245

Briefly, growth measured for CCOC(=O)c1c(Cl)c2c(n1Cc1cc(OC)cc(OC)c1)-c1oncc1CCC2 : 44.1

Briefly, growth measured for CCC12CCC3c4ccc(O)cc4CCC3C1CC(O)C2O (configuration not stated) : 68

Briefly, growth measured for COc1ccc(/C=C2\Oc3cc(C)c(Cl)cc3C2=O)cc1OC : 103

Briefly, growth measured for COc1cc(CNCCCN2C(=O)c3ccc4c5c(ccc(c35)C2=O)C(=O)N(CCCNCc2cc(OC)c(OC)c(OC)c2)C4=O)cc(OC)c1OC : -74.8

Briefly, growth measured for Cc1cccc2c(=O)c3c(sc12)c(NCCNCCO)nc1ccccc13 : 55.3

Briefly, growth measured for Cc1ccc(C2SCC(=O)N2NC(=O)c2[nH]c3ccc(F)cc3c2-c2ccccc2)cc1 (configuration not stated) : 86.6

###

- Test system: SF-539 CNS
- METHOD_NOTES: NCI-60 one-dose screen, 48 h
- RUN_PARAMETERS: 10 µM unless noted
Compounds without any hit were thinned out: in the full panel of roughly 83,000, 20% have a hit. Activity calls are given as the source filed them. Rule for the calls: active = growth percent below 10; inactive = the rest.
Entry note: the call must match one of t (active), f (inactive)

| COMPOUND | TEST_TARGET | CLASS_LABEL |
| --- | --- | --- |
| CCC(C)[C@H]1O[C@]2(CC[C@@H]1C)C[C@@H]1C[C@@H](C/C=C(\C)[C@@H](OC3C[C@H](OC)C(O[C@H]4C[C@H](OC)[C@@H](O)[C@H](C)O4)[C@H](C)O3)[C@@H](C)/C=C/C=C3\CO[C@@H]4[C@H](O)C(C)=C[C@@H](C(=O)O1)[C@]34O)O2 (some centres not stated) | SF-539 CNS | t |

Consider now this further compound.
Hi team, can someone confirm the assay call for CCCCC/C=C\C/C=C/CCCCCCCCNC(=O)Nc1ccc([N+](=O)[O-])cc1 ? f

###

Listing: growth of selected molecules
- Test system: UACC-257 melanoma
- METHOD_NOTES: NCI-60 one-dose screen, 48 h (100 = growth as untreated, 0 = no growth, -100 = all killed)
- RUN_PARAMETERS: 10 µM unless noted
About 83,000 compounds went through this panel and 20% of them were active in at least one assay; those are over-represented in the sample as a whole.
Give the number; % is assumed, so skip it.

Past entries and their recorded results:
| MOLECULE | growth / % |
| --- | --- |
| Cc1nc(NN)c([N+](=O)[O-])c(NN)n1 | 99.3 |
| CCC(=O)Nc1nnc(Cc2ccc(OC)c(OC)c2)s1 | -26.3 |
| O=C(N/N=C(\CS(=O)(=O)c1ccccc1)c1cc2ccccc2oc1=O)c1ccccc1 | 94.6 |

Briefly, growth measured for O=C1CC2c3cc(-c4cc5ccccc5o4)ccc3CCN2C(=O)N1c1ccccc1 (configuration not stated) : 87.8

Briefly, growth measured for O=c1oc2ccccc2cc1-c1csc(N=Nc2c(O)[nH]c3ccc(Br)cc23)n1 : 97.3

Briefly, growth measured for NC(=O)c1nc2c([nH]c1=O)CCCC2 : 109

Briefly, growth measured for COC(=O)c1c2c(c(C)[n+]([O-])c1C)C(=O)C=C(NCc1ccc(F)c(Cl)c1)C2=O : -82.8

Briefly, growth measured for CCCCC(=O)N/N=C/c1cc(I)cc(I)c1O : 41.8

Briefly, growth measured for NS(=O)(=O)c1cc(Br)c2c(c1)S(=O)(=O)NCN2 : 94.5

Briefly, growth measured for Cc1nc2cc(Nc3nc(Cl)nc(Nc4ccc(F)cc4)n3)ccc2n1Cc1ccccc1 : 89.7

Briefly, growth measured for Clc1ccc2c(c1)C[C@H]1C[C@@H](c3cccs3)N2O1 : 105

Briefly, growth measured for OC[C@@H](O)[C@@H](O)CO : 105
